Hey, just so you know, these numbers are from the supplement of paper PMC6555819.

test system: RARa:RXR (NR concentration 270 nM, RXRa partner concentration 90 nM); assay: PBM binding z-score (relative to random genomic background probes); higher = stronger binding; sequences stand for … in GC…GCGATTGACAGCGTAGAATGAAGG
Items are presented alongside their recorded PBM binding z-score.
measured attribute: PBM binding z-score

> print(dat)
                        residue.codes  obs.value
1  AGTCAAAGTTAAGGACGAGGTAACGTAAAGCACG       1.19
2  CTACCAAGGTGAACAAGGTCGTTGCTTACTATTC       2.64
3  ATCGAAAGGCCGAAGGTGAGTATACCCACCCGAA      0.273
4  ATATGTAGGTGAGCTGGGGTCATTCAGACTAGGC       5.85
5  GCTAGCAGGCCATTTGGGTCACTCTATGACGGGC      0.546
6  ATCGAAAGGTTGAGGTGAGTATAGAGAAAGGGAA       1.37
